Entry source: patent US20260007684A1

target system: human NLRP3 (Homo sapiens (Human), UniProt Q96P20)
Sequence (Q96P20 whole entry): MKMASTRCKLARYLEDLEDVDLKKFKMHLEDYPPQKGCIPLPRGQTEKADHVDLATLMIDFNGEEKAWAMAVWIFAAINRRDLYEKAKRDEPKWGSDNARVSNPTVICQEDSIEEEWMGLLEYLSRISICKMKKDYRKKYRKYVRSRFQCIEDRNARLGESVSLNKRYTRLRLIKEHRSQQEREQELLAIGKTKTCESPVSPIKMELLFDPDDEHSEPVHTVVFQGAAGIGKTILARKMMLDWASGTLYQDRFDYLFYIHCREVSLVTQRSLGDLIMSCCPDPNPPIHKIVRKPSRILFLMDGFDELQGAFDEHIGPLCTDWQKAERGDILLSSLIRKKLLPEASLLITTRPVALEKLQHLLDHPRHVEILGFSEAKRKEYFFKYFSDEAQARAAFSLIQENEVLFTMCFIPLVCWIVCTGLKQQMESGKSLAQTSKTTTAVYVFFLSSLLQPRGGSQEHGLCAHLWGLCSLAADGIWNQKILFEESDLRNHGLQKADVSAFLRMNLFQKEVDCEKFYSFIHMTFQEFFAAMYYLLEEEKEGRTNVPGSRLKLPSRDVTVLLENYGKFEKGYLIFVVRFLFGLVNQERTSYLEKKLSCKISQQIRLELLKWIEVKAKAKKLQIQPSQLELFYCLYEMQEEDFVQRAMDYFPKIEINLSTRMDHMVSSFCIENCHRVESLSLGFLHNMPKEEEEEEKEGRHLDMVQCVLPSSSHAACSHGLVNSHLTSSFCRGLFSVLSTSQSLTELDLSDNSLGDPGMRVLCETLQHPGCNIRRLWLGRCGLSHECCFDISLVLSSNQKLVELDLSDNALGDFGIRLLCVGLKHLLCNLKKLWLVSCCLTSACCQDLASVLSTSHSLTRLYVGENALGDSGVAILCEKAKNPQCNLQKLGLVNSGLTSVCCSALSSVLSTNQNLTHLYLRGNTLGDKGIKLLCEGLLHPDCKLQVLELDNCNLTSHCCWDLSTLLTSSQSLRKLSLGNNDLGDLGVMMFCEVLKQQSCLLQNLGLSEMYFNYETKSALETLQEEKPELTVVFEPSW
procedure details: Scintillation Proximity (SPA) NLRP3 Assay: displacement of 3H-MCC950
Format: binding
condition: displacement of 3H-MCC950; read-out: SPA IC50
Here, each record is paired with measured IC50 data.

Below, each entry is followed by its recorded IC50 result.
1) O=C(N[C@@H]1CC[C@H]2CC[C@@H]1N2c1nnn[nH]1)C1(c2ccc(OC(F)(F)F)cc2O)CC1 [78C*] | < 1 µM
2) C[C@H]1C[C@H](NC(=O)C2(c3ccc(OC(F)F)cc3)CC2)[C@@H]2CC[C@H]1N2c1nnn[nH]1 (single isomer, unassigned) [35D*] | 10 to 50 µM
3) Cc1ccc(C2(C(=O)N[C@@H]3C[C@H](C)CN(c4nnn[nH]4)C3)CC2)c(O)c1 [Compound 20A] | < 1 µM

Q: Query the reported IC50 for human NLRP3 (Homo sapiens (Human), UniProt Q96P20); item: C[C@@H]1CCN(c2nnn[nH]2)C[C@H](NC(=O)C2(c3ccc(C(F)(F)F)cc3)CC2)C1 (single isomer, unassigned) [61A*]
Result: < 1 µM

Q: Query the reported IC50 for human NLRP3 (Homo sapiens (Human), UniProt Q96P20); item: C[C@@H]1CCN(c2nnn[nH]2)C[C@H](NC(=O)C2(c3ccc(C(F)F)cc3)CC2)C1 (single isomer, unassigned)
Result: < 1 µM

Q: Query the reported IC50 for human NLRP3 (Homo sapiens (Human), UniProt Q96P20); item: C[C@@H]1CCN(c2nnn[nH]2)C[C@@H](NC(=O)C2(c3cc(F)c(C(F)(F)F)cc3F)CC2)C1 (single isomer, unassigned)
Result: 10 to 50 µM

Q: Query the reported IC50 for human NLRP3 (Homo sapiens (Human), UniProt Q96P20); item: C[C@@H]1C[C@@H](NC(=O)C2(c3ccc(C(F)(F)F)cc3F)CC2)[C@H]2CC[C@@H]1N2c1nnn[nH]1 [84A*]
Result: < 1 µM

Q: Query the reported IC50 for human NLRP3 (Homo sapiens (Human), UniProt Q96P20); item: C[C@H]1C[C@H](NC(=O)C2(c3ccc(C4CC4(F)F)cc3)CC2)[C@@H]2CC[C@H]1N2c1nnn[nH]1 (single isomer, unassigned) [37D*]
Result: > 100 µM

Q: Query the reported IC50 for human NLRP3 (Homo sapiens (Human), UniProt Q96P20); item: C[C@H]1C[C@H](NC(=O)C2(c3ccc(C4CC4)cc3)CC2)[C@@H]2CC[C@H]1N2c1nnn[nH]1 [81D*]
Result: 10 to 50 µM

* * *

target system: human NLRP3 (Homo sapiens (Human))
procedure details: Human PBMC NLRP3 Assay (LPS priming, ATP stimulation, cytokine measurement)
Assay type: cell-based
condition: human PBMC, LPS priming, ATP stimulation; read-out: PBMC IC50
pIC50: −log10 of the molar value.
metric: pIC50

1) C[C@@H]1CCN(c2nnn[nH]2)C[C@H](NC(=O)C2(c3ccc(Cl)c(F)c3)CC2)C1 (single isomer, unassigned) [65A*] | 7.00 to 8.00

Q: Item under review: C[C@@H]1CCN(c2nnn[nH]2)C[C@@H](NC(=O)C2(c3ccc(OC(F)F)cc3O)CC2)C1 (single isomer, unassigned) [70B*] . Reported pIC50?
Result: 7.00 to 8.00

Q: Item under review: C[C@@H]1CCN(c2nnn[nH]2)C[C@H](NC(=O)C2(c3ccc(Cl)cc3O)CC2)C1 (single isomer, unassigned) [60A*] . Reported pIC50?
Result: > 8.00

Q: Item under review: C[C@@H]1CCN(c2nnn[nH]2)C[C@H](NC(=O)C2(c3ccc(Br)cc3)CC2)C1 (single isomer, unassigned) [59A*] . Reported pIC50?
Result: > 8.00

Q: Item under review: C[C@@H]1CCN(c2nnn[nH]2)C[C@H](NC(=O)C2(c3ccc(C4CC4)c(F)c3O)CC2)C1 (single isomer, unassigned) [32A*] . Reported pIC50?
Result: > 8.00

Q: Item under review: C[C@@H]1CCN(c2nnn[nH]2)C[C@H](NC(=O)C2(c3ccc(Cl)cc3F)CC2)C1 (single isomer, unassigned) [56A*] . Reported pIC50?
Result: > 8.00

Q: Item under review: C[C@@H]1CCN(c2nnn[nH]2)C[C@H](NC(=O)C2(c3ccc(OC(F)(F)F)c(F)c3O)CC2)C1 (single isomer, unassigned) [28A*] . Reported pIC50?
Result: 7.00 to 8.00

Q: Item under review: C[C@@H]1CCN(c2nnn[nH]2)C[C@H](NC(=O)C2(c3ccc(OC(F)F)c(F)c3)CC2)C1 (single isomer, unassigned) [73A*] . Reported pIC50?
Result: 7.00 to 8.00

Q: Item under review: C[C@H]1CCN(c2nnn[nH]2)C[C@@H](NC(=O)C2(c3ccc(Cl)c(F)c3O)CC2)C1 (single isomer, unassigned) [18D*] . Reported pIC50?
Result: 6.30 to 7.00
